- run_description: recombinant barcode read abundance after kanamycin selection (control-corrected) (log10(CPM+1)); higher = more efficient recombination; sequences stand for … in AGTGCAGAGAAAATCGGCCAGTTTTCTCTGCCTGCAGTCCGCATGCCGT…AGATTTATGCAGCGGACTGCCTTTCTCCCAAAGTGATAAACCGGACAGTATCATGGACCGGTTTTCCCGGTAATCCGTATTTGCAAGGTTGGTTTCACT; site = the 11-nt target;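 also: IS621 recombinase and bridge RNA in Escherichia coli cells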
This listing pairs sequences with measured recombinant barcode read abundance (log10).
Enter the number alone.

Here is how some sequences turned out for recombinant barcode read abundance (log10).
sequence_content: TCGTCACCTTGGGTTCTAACCTGTTGCCT (site ACGTCACCTAG)
value_observed: 0

sequence_content: TTCTGAACTTGGGTTCTAACCTGTTGCCT (site GTCTCAACTAG)
value_observed: 0.109

# lookup: recombinant barcode read abundance (log10) of GAAGGCGCTTGGGTTCTAACCTGTTGCCT (site GAAGGCGCTAG)
1.81

Give the measured recombinant barcode read abundance (log10) of GCTAGTCCTTGGGTTCTAACCTGTTGCTG (site GCTAGTCCTCA) .
0.83

I would be grateful if you could share the reported recombinant barcode read abundance (log10) for ACGATCGCTTGGGTTCTAACCTGTTGCCT (site ACGAACGCTAG) .
0.08

Item under review: GGGGCACCTTGGGTTCTAACCTGTTGCGT (site GGGGCACCTAG) . Reported recombinant barcode read abundance (log10)?
0.492

Which recombinant barcode read abundance (log10) reading was recorded for the sequence GGTAAGTCTTGGGTTCTAACCTGTTGCCT (site GGTAAATCTAG) ?
0.3

Param item = CGTAGCTCTTGGGTTCTAACCTGTTGCCT (site CGCAGCTCTAG) ; retrieve measured recombinant barcode read abundance (log10).
0.128

I'd like to know its recombinant barcode read abundance (log10). The sequence in question is ACAGAGACTTGGGTTCTAACCTGTTGCGC (site ACAAAGACTGC)
0.372

Given GAAGTGCCTTGGGTTCTAACCTGTTGCCT (site GAAGGGCCTAG) , state its recorded recombinant barcode read abundance (log10).
0.195

* * *

- run_description: recombinant barcode read abundance after kanamycin selection (control-corrected) (log10(CPM+1)); higher = more efficient recombination; sequences stand for … in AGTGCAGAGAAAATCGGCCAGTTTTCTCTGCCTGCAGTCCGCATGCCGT…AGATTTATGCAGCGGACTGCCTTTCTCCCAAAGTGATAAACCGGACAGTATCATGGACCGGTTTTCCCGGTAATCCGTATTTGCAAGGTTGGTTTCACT; site = the 11-nt target
readout_name: recombinant barcode read abundance (log10)
API doc: respond with a numeric literal and nothing else, no unit.

sequence_content: GCGACTCCTTGGGTTCTAACCTGTTGCAT (site GCGTCTCCTAT)
value_observed: 0.0718
//
sequence_content: ACATGAACTTGGGTTCTAACCTGTTGCCT (site ACCTGAACTAG)
value_observed: 0.0918
//
sequence_content: GTGTGTGCTTGGGTTCTAACCTGTTGCCT (site GTGTGTGCTAG)
value_observed: 1.44
//
sequence_content: CGCGTTCCTTGGGTTCTAACCTGTTGCCT (site CGCGCTCCTAG)
value_observed: 0.608

Then this sequence:
I have this sequence here, TGTCGGACTTGGGTTCTAACCTGTTGCAT (site TGTCGGACTCT) , and I need its recorded recombinant barcode read abundance (log10).
0.18
